# assay_remarks: Selectivity index, ratio of CC50 for human P3HR1 cells to EC50 for EBV
# Assay type: toxicity
# condition_description: read-out: Ratio CC50/EC50
observable: selectivity ratio
// print number alone

selectivity ratio measured on O=C1C[C@H](SCC(O)C(=O)O)[C@@]2(O)c3c(ccc(O)c31)-c1ccc(O)c3c1[C@@H]2[C@@H](Cl)[C@H](O)[C@@H]3O (stereo partly specified) = 13.5

selectivity ratio measured on O=C1C=Cc2c3c4c(c(O)ccc4c4ccc(O)c1c24)[C@@H](O)[C@H](O)[C@@H]3O = 64.3

selectivity ratio measured on CO[C@H]1c2c3c4c(c(O)ccc4c4ccc(O)c(c24)[C@@H](O)[C@H]1O)C(=O)C=C3 = 49.7

selectivity ratio measured on O=C1C=Cc2c3c4c(c(O)ccc4c4ccc(O)c1c24)[C@@H](O)[C@@H](Cl)[C@H]3O = 26.1

selectivity ratio measured on O=C1C[C@H](O)[C@H]2c3ccc(O)c4c3[C@H](c3ccc(O)c1c32)[C@@H](O)[C@@H](Cl)[C@@H]4O = 25.3

* * *

# System: BV-2
# assay_remarks: Antiinflammatory activity in mouse BV2 cells assessed as reduction in LPS-induced nitric oxide production by colorimetric assay
# Type: functional, cell-based
observable: pIC50
A value of pIC50 is the negative decimal logarithm of a concentration given in moles per litre.

pIC50 measured on CO[C@H]1c2c3c4c(c(O)ccc4c4ccc(O)c(c24)[C@@H](O)[C@H]1O)C(=O)C=C3 = 5.56

pIC50 measured on O=C1C=Cc2c3c4c(c(O)ccc4c4ccc(O)c1c24)[C@@H](O)[C@@H](Cl)[C@H]3O = 6.14

pIC50 measured on O=C1C[C@H](SCC(O)C(=O)O)[C@@]2(O)c3c(ccc(O)c31)-c1ccc(O)c3c1[C@@H]2[C@@H](Cl)[C@H](O)[C@@H]3O (stereo partly drawn) = 6.48

* * *

# Tested on: BV-2
# assay_remarks: Antiinflammatory activity in mouse BV2 cells assessed as reduction in LPS-induced nitric oxide production by colorimetric assay
# Assay type: functional, cell-based
observable: pIC50
A value of pIC50 is the negative decimal logarithm of a concentration given in moles per litre.

pIC50 measured on O=C1C[C@H](O)[C@H]2c3ccc(O)c4c3[C@H](c3ccc(O)c1c32)[C@@H](O)[C@@H](Cl)[C@@H]4O = 5.39

pIC50 measured on O=C1C[C@@H](O)[C@@H]2c3ccc(O)c4c3[C@@H](c3ccc(O)c1c32)[C@H](O)CC4=O = 5.49

pIC50 measured on O=C1C=Cc2c3c4c(c(O)ccc4c4ccc(O)c1c24)[C@@H](O)[C@H](Cl)[C@@H]3O = 5.69

pIC50 measured on COc1cc(/C=C/C(=O)CC(=O)/C=C/c2ccc(O)c(OC)c2)ccc1O = 5.57

* * *

# Tested on: Human gammaherpesvirus 4
# assay_remarks: Antiviral activity against EBV infected in P3HR1 cells assessed as decrease in Rta cells at 10 uM measured after 24 hrs by Western blot analysis relative to control
# Type: functional
# condition_description: human gammaherpesvirus 4, P3HR-1
Would you mind telling me the reported inhibition at 10 µM of each entry?
Expressed in %, but write only the number.

inhibition at 10 µM measured on O=C1C=Cc2c3c4c(c(O)ccc4c4ccc(O)c1c24)[C@@H](O)[C@H](O)[C@@H]3O = 100

inhibition at 10 µM measured on O=C1C[C@H](SCC(O)C(=O)O)[C@@]2(O)c3c(ccc(O)c31)-c1ccc(O)c3c1[C@@H]2[C@@H](Cl)[C@H](O)[C@@H]3O (some centres undefined) = 100

inhibition at 10 µM measured on CO[C@H]1c2c3c4c(c(O)ccc4c4ccc(O)c(c24)[C@@H](O)[C@H]1O)C(=O)C=C3 = 100

inhibition at 10 µM measured on O=C1C[C@H](O)[C@H]2c3ccc(O)c4c3[C@H](c3ccc(O)c1c32)[C@@H](O)[C@@H](Cl)[C@@H]4O = 100

inhibition at 10 µM measured on CC[C@H](C)[C@@H]1NC(=O)C(C(C)=O)=C1O = 23

inhibition at 10 µM measured on O=C1C=Cc2c3c4c(c(O)ccc4c4ccc(O)c1c24)[C@@H](O)[C@@H](Cl)[C@H]3O = 100

inhibition at 10 µM measured on O=C1C=Cc2c3c4c(c(O)ccc4c4ccc(O)c1c24)[C@@H](O)[C@H](Cl)[C@@H]3O = 100

inhibition at 10 µM measured on O=C1C[C@@H](O)[C@@H]2c3ccc(O)c4c3[C@@H](c3ccc(O)c1c32)[C@H](O)CC4=O = 34

inhibition at 10 µM measured on CC[C@H](C)[C@H]1NC(=O)C(C(C)=O)=C1O = -5

* * *

# assay_remarks: Cytotoxicity against human P3HR1 cells
# Type: toxicity, cell-based, P3HR-1
Simple rule here: CC50 less than 60 µM is 1, otherwise -1.

Exam item: Find out if reported CC50 for O=C1C[C@H](SCC(O)C(=O)O)[C@@]2(O)c3c(ccc(O)c31)-c1ccc(O)c3c1[C@@H]2[C@@H](Cl)[C@H](O)[C@@H]3O (stereo partly specified) is less than 60 µM
Marked response: 1

Exam item: Find out if reported CC50 for O=C1C=Cc2c3c4c(c(O)ccc4c4ccc(O)c1c24)[C@@H](O)[C@H](Cl)[C@@H]3O is less than 60 µM
Marked response: -1

Exam item: Find out if reported CC50 for O=C1C=Cc2c3c4c(c(O)ccc4c4ccc(O)c1c24)[C@@H](O)[C@H](O)[C@@H]3O is less than 60 µM
Marked response: -1

Exam item: Find out if reported CC50 for O=C1C=Cc2c3c4c(c(O)ccc4c4ccc(O)c1c24)[C@@H](O)[C@@H](Cl)[C@H]3O is less than 60 µM
Marked response: 1
